Molecular target: Kv2.1 (Homo sapiens, UniProt Q14721)
Construct: host or cells: HEK293 or CHO
Sequence (Q14721 whole entry): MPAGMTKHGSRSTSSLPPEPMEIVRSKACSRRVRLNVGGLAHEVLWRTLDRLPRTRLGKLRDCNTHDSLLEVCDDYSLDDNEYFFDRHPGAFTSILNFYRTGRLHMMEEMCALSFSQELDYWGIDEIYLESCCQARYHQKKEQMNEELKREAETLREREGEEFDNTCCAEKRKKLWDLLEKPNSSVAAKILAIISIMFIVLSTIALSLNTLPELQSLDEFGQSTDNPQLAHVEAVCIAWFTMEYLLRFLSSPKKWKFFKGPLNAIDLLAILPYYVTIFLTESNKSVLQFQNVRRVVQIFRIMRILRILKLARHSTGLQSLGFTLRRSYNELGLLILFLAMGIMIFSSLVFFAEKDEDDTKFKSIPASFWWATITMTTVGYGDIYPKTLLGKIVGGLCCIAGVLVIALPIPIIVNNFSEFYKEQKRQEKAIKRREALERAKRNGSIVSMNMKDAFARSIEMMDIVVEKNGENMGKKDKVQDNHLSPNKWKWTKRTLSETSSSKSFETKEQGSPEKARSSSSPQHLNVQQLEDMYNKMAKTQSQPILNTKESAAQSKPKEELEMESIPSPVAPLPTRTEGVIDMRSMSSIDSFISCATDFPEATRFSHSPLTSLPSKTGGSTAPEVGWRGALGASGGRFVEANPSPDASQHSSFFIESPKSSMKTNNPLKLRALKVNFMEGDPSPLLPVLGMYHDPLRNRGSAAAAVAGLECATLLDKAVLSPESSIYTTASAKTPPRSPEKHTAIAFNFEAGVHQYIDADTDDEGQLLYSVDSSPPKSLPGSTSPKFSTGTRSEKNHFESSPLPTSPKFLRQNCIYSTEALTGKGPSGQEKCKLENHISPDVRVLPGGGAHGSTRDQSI
Experiment: cell-based
Conditions: peptide at 0.2 μM; 100% = no change, <100% = inhibition
Experimental: This example describes a method for assaying ion channel activity in cells. Peptides were screened in duplicate at final concentrations of 20 μM and 200 nM, as determined by amino acid analysis, and diluted into HEPES buffered physiological saline (HBPS). HEK293 or CHO cells from the American Type Culture Collection (ATCC) were transfected with the appropriate ion channel before use. […]
Property Name: Activity of Kv2.1 with peptide, expressed as a percentage of the reference compound (%)
Quick reminder: number only, in %, skip the unit.

// below: answered substances
Query: # get_value(readout='Activity of Kv2.1 with peptide, expressed as a percentage of the reference compound', item= 6 (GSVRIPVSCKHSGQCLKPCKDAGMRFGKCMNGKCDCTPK) [compound 6] )
Reply: 103

Query: # get_value(readout='Activity of Kv2.1 with peptide, expressed as a percentage of the reference compound', item= 38 (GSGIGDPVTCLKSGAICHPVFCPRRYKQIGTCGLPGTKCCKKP) [compound 38] )
Reply: 100

Query: # get_value(readout='Activity of Kv2.1 with peptide, expressed as a percentage of the reference compound', item= 29 (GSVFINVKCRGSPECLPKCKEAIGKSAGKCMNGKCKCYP) [compound 29] )
Reply: 91

Query: # get_value(readout='Activity of Kv2.1 with peptide, expressed as a percentage of the reference compound', item= 19 (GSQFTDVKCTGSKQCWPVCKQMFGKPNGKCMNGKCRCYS) [compound 19] )
Reply: 95

More entries:
Query: # get_value(readout='Activity of Kv2.1 with peptide, expressed as a percentage of the reference compound', item= 15 (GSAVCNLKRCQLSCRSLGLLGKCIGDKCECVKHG) [compound 15] )
Reply: 91

Query: # get_value(readout='Activity of Kv2.1 with peptide, expressed as a percentage of the reference compound', item= 4 (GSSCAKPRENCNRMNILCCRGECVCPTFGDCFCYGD) [compound 4] )
Reply: 112

Query: # get_value(readout='Activity of Kv2.1 with peptide, expressed as a percentage of the reference compound', item= 10 (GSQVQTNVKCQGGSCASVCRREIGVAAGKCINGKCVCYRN) [compound 10] )
Reply: 88

Query: # get_value(readout='Activity of Kv2.1 with peptide, expressed as a percentage of the reference compound', item= 32 (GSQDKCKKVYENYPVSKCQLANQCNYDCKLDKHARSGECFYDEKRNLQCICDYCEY) [compound 32] )
Reply: 92

Query: # get_value(readout='Activity of Kv2.1 with peptide, expressed as a percentage of the reference compound', item= 2 (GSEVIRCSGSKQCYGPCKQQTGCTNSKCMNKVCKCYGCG) [compound 2] )
Reply: 80

---

# Activity of 5HT3a with peptide (percentage of the reference compound) listing for each entry below
Biological target: 5HT3a (Homo sapiens)
Construct: host or cells: HEK293 or CHO
Sequence (P46098 whole entry, looked up): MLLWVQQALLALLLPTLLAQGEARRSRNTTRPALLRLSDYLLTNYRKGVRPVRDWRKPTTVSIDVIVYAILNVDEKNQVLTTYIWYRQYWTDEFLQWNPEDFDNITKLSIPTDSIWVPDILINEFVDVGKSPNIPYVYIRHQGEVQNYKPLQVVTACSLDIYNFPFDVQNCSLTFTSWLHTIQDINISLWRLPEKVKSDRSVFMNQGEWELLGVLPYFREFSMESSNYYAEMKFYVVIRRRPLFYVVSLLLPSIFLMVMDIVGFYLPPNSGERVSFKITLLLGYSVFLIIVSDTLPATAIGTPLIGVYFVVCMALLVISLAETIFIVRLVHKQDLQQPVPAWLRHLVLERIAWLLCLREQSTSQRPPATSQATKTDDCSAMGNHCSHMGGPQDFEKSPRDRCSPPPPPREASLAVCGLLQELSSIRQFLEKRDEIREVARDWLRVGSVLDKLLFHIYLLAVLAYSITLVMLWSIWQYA
Assay: Ion channel panel (IonWorks Barracuda): 5HT3a
Format: cell-based
Quick reminder: number only, in %, skip the unit.

Query: # get_value(readout='Activity of 5HT3a with peptide (percentage of the reference compound)', item= 4 (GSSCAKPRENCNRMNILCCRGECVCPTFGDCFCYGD) [compound 4] )
Reply: 76

Query: # get_value(readout='Activity of 5HT3a with peptide (percentage of the reference compound)', item= 5 (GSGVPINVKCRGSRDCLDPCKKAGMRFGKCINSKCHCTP) [compound 5] )
Reply: 80

Query: # get_value(readout='Activity of 5HT3a with peptide (percentage of the reference compound)', item= 20 (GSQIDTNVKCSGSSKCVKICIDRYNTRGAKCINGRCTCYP) [compound 20] )
Reply: 91

More entries:
Query: # get_value(readout='Activity of 5HT3a with peptide (percentage of the reference compound)', item= 2 (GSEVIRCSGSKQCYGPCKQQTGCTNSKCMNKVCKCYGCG) [compound 2] )
Reply: 88

Query: # get_value(readout='Activity of 5HT3a with peptide (percentage of the reference compound)', item= 13 (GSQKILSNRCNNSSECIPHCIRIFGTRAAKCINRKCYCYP) [compound 13] )
Reply: 84

Query: # get_value(readout='Activity of 5HT3a with peptide (percentage of the reference compound)', item= 12 (GSNFKVEGACSKPCRKYCIDKGARNGKCINGRCHCYY) [compound 12] )
Reply: 97

Query: # get_value(readout='Activity of 5HT3a with peptide (percentage of the reference compound)', item= 38 (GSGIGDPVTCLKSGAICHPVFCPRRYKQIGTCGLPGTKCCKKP) [compound 38] )
Reply: 98

Query: # get_value(readout='Activity of 5HT3a with peptide (percentage of the reference compound)', item= 29 (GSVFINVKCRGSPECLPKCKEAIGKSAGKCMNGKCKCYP) [compound 29] )
Reply: 91

Query: # get_value(readout='Activity of 5HT3a with peptide (percentage of the reference compound)', item= 27 (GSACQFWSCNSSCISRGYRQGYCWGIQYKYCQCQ) [compound 27] )
Reply: 78

Query: # get_value(readout='Activity of 5HT3a with peptide (percentage of the reference compound)', item= 32 (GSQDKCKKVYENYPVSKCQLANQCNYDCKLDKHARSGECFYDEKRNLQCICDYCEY) [compound 32] )
Reply: 105

---

Target: Nav1.7 (Homo sapiens)
Construct: host or cells: HEK293 or CHO
Sequence (Q15858 whole entry): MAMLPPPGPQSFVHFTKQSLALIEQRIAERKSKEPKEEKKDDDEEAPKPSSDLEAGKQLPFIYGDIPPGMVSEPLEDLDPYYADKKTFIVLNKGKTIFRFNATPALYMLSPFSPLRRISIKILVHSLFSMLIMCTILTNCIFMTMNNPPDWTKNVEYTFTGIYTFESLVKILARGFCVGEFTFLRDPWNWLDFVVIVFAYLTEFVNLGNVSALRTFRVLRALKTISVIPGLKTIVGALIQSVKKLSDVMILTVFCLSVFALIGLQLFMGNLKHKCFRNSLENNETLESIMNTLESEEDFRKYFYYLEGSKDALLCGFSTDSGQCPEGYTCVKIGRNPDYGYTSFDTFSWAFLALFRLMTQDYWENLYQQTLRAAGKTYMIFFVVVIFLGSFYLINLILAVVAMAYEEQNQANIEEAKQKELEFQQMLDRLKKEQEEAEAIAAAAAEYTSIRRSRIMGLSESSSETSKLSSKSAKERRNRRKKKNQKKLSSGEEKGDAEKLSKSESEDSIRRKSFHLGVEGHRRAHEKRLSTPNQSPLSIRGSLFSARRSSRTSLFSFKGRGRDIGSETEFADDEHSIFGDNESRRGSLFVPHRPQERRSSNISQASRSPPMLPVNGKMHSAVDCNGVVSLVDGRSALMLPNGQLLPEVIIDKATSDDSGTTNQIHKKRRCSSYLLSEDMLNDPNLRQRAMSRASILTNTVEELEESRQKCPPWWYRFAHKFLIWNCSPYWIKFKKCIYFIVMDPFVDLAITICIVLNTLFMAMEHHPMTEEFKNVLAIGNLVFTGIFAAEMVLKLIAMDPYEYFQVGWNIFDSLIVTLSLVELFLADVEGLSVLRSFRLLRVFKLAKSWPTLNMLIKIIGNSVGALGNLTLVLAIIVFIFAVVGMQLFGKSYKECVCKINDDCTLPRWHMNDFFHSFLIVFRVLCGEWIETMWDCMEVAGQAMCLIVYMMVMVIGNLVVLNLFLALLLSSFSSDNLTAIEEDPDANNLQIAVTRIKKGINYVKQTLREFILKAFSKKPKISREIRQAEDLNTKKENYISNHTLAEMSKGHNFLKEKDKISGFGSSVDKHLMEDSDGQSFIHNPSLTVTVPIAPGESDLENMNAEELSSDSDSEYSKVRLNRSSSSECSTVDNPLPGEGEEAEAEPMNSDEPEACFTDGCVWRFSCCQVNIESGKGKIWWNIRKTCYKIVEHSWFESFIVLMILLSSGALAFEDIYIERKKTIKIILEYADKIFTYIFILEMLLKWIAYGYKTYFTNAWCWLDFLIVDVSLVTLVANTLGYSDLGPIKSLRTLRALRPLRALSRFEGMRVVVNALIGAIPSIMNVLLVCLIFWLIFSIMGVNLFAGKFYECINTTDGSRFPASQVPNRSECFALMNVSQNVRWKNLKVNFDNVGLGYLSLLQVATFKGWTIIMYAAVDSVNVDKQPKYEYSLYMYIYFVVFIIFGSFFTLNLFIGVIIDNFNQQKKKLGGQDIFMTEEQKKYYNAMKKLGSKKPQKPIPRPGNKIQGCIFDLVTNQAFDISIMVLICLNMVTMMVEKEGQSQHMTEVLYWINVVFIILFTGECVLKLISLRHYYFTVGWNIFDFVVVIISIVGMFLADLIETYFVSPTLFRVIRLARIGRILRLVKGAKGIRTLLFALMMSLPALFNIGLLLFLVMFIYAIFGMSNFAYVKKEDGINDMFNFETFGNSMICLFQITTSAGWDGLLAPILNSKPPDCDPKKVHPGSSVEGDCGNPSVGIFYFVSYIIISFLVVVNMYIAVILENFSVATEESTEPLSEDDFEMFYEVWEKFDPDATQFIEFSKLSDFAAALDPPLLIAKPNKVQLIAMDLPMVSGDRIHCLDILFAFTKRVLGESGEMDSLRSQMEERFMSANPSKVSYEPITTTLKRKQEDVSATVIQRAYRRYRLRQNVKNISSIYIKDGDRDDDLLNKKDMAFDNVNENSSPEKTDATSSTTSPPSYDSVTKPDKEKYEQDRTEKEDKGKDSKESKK
Assay: cell-based
Format: cell-based
Settings: peptide at 20 μM; first of two Nav1.7 columns (probably TP1); 100% = no change
Property Name: Activity of Nav1.7 with peptide (percentage of the reference compound) (%)
Quick reminder: number only, in %, skip the unit.

Query: # get_value(readout='Activity of Nav1.7 with peptide (percentage of the reference compound)', item= 20 (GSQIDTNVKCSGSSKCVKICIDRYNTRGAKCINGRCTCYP) [compound 20] )
Reply: 81

Query: # get_value(readout='Activity of Nav1.7 with peptide (percentage of the reference compound)', item= 24 (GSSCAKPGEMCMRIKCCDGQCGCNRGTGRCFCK) [compound 24] )
Reply: 80

More entries:
Query: # get_value(readout='Activity of Nav1.7 with peptide (percentage of the reference compound)', item= 25 (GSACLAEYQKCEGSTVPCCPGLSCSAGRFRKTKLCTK) [compound 25] )
Reply: 90

---

# Activity of Nav1.5 with peptide (percentage of the reference compound) listing for each entry below
Target: Nav1.5 (Homo sapiens)
Sequence (Q14524 whole entry): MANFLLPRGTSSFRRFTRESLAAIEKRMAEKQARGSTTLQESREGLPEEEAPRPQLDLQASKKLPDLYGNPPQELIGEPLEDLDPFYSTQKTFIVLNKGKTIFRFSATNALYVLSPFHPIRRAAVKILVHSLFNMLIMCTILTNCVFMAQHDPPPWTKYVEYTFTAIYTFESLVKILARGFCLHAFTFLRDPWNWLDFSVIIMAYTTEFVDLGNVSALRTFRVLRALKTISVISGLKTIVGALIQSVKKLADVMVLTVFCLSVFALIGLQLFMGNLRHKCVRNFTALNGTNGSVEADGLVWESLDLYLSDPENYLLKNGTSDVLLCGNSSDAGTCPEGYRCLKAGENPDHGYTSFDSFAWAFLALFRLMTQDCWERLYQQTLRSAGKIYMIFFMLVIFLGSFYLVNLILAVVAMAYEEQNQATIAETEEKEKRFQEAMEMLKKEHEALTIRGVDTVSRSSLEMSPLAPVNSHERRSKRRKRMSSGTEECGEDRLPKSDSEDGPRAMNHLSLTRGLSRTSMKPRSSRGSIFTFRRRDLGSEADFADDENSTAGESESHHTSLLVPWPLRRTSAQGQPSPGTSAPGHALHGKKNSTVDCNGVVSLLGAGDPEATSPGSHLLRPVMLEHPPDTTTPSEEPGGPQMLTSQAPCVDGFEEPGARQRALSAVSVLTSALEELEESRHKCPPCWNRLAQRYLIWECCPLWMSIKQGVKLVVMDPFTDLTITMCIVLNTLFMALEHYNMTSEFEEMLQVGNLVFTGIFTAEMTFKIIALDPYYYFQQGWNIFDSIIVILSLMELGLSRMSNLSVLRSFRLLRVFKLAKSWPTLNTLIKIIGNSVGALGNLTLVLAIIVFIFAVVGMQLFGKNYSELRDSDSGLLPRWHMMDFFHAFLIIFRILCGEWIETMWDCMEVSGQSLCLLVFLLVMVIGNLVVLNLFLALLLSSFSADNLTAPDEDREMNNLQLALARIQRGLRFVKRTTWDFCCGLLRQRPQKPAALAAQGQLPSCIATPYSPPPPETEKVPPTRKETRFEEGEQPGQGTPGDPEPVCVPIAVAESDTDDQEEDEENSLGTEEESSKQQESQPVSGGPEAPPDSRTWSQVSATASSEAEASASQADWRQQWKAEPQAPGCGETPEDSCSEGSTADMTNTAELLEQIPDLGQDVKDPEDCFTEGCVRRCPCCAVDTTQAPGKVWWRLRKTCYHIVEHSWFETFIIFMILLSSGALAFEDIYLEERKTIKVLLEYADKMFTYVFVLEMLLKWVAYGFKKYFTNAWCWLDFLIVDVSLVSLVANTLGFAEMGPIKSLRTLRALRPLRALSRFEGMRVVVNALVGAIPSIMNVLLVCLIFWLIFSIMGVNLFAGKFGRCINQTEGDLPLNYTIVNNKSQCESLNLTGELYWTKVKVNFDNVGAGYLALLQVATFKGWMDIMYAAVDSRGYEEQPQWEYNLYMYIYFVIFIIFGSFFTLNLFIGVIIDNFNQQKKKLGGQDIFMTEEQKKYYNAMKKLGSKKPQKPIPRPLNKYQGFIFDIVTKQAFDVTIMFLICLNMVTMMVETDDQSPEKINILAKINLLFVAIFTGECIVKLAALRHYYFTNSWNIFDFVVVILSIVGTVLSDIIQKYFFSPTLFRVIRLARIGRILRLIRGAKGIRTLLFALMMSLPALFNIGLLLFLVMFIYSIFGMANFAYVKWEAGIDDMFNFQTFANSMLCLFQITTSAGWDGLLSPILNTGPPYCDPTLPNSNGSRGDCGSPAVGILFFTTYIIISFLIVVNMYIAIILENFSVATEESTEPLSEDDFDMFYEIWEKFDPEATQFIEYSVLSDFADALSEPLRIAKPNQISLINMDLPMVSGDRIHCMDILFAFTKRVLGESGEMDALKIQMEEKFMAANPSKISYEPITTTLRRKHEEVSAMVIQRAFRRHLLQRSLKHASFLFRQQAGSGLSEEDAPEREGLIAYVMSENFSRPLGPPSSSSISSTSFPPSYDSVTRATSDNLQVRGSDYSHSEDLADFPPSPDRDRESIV
Assay: in vitro
Details: peptide at 20 μM; first of two Nav1.5 columns (probably TP1); 100% = no change

// below: answered substances
Query: # get_value(readout='Activity of Nav1.5 with peptide (percentage of the reference compound)', item= 15 (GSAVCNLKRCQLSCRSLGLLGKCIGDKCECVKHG) [compound 15] )
Reply: 78%

Query: # get_value(readout='Activity of Nav1.5 with peptide (percentage of the reference compound)', item= 10 (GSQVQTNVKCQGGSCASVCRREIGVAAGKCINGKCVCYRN) [compound 10] )
Reply: 114%

Query: # get_value(readout='Activity of Nav1.5 with peptide (percentage of the reference compound)', item= 30 (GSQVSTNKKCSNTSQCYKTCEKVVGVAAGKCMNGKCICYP) [compound 30] )
Reply: 94%

More entries:
Query: # get_value(readout='Activity of Nav1.5 with peptide (percentage of the reference compound)', item= 21 (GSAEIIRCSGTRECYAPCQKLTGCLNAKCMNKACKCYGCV) [compound 21] )
Reply: 96%

Query: # get_value(readout='Activity of Nav1.5 with peptide (percentage of the reference compound)', item= 18 (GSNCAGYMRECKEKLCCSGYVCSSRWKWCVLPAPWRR) [compound 18] )
Reply: 87%
